tested on: HT29 colon; assay: NCI-60 one-dose screen, 48 h (100 = growth as untreated, 0 = no growth, -100 = all killed); conditions: 10 µM unless noted
Compounds without any hit were thinned out: in the full panel of roughly 83,000, 20% have a hit.
# if value of growth reaches 90%, tag 1.0; if it stays below, tag 0.0

compound=CCCCNc1nnc2n(Cc3ccccc3)c(=O)c3c4c(sc3n12)CCCC4 category_label=0.0
compound=Cc1c(CC(=S)N2CCOCC2)nnn1-c1cccc(C(F)(F)F)c1 category_label=1.0
compound="O=C(NC1CC(F)C1)c1cc2cccnc2n1-c1ccc(Cl)c(Cl)c1 (stereo not given)" category_label=1.0
compound="CCCn1cnc2c(c1=N)C(c1ccc(F)cc1)c1sc3c(F)cccc3c1O2 (stereo not given)" category_label=0.0
compound=O=[N+]([O-])c1cc(NS(=O)(=O)c2ccccc2)ccc1NS(=O)(=O)c1ccccc1 category_label=0.0
compound="CNC(C)[C@H]1CCC2C3CC=C4C(=O)[C@@H](NC(=O)C=C(C)C)CC[C@]4(C)C3CC[C@@]21C (stereo not given in full)" category_label=0.0
compound=O=C1Nc2ccccc2/C1=C\c1c[nH]c2ccc(Br)cc12 category_label=0.0
compound=O=C1c2cccc3cccc(c23)C(=O)N1C/C=C/c1ccc2c3c(cccc13)C(=O)N(CCO)C2=O category_label=0.0

Lab note: next compound to report on.
Hi, just wondering whether `CCOc1ccc(-n2nc(C(=O)NCc3ccccc3OC)nc2-c2cc(OC)c(OC)c(OC)c2)cc1` shows growth of 90% or higher.
0.0
